Target: CD3ε homodimer protein (human, UniProt P07766 23-126, limits assumed)
Sequence (P07766 23-126 limits assumed): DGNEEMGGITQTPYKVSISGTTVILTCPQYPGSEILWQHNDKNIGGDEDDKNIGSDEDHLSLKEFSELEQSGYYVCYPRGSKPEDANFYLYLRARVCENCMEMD
Test: SPR, immobilized CD3ε homodimer;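 further: biacore T200 surface plasmon resonance at 25 °C, antibody variants flowed as analytes over amine-coupled CD3ε homodimer on a CM4 chip, variant binding amount divided by that of GLS3000 antibody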
Measurement Name: ratio of amounts bound (vs GLS3000)
// no unit, no text: just the number

# annotated cases, reported ratio of amounts bound (vs GLS3000) shown
binder="GLS3000 N30D (antibody, name in Kabat numbering, V domains shown, one-arm format as m2) VH: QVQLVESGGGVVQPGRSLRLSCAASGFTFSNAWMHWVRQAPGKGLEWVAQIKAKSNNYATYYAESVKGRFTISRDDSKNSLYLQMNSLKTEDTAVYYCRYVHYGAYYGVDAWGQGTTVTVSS VL: DIVMTQSPLSLPVTPGEPASISCRSSQSLVHSNRDTYLHWYQQKPGQAPRLLIYKVSNRFSGVPDRFSGSGSGTDFTLKISRVEAEDVGVYYCGQGTQVPYTFGQGTKLEIK" measurement_name="ratio of amounts bound (vs GLS3000)" assay_result=0.34
binder="GLS3000 L27bW (antibody, name in Kabat numbering, V domains shown, one-arm format as m2) VH: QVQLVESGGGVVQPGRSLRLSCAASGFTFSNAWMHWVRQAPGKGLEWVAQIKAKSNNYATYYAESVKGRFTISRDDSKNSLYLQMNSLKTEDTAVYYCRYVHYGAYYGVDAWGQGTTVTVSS VL: DIVMTQSPLSLPVTPGEPASISCRSSQSWVHSNRNTYLHWYQQKPGQAPRLLIYKVSNRFSGVPDRFSGSGSGTDFTLKISRVEAEDVGVYYCGQGTQVPYTFGQGTKLEIK" measurement_name="ratio of amounts bound (vs GLS3000)" assay_result=0.26
binder="GLS3000 V94F (antibody, name in Kabat numbering, V domains shown, one-arm format as m2) VH: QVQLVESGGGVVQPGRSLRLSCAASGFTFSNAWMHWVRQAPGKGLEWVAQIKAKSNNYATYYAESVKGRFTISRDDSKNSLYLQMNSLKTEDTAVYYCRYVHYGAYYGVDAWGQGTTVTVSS VL: DIVMTQSPLSLPVTPGEPASISCRSSQSLVHSNRNTYLHWYQQKPGQAPRLLIYKVSNRFSGVPDRFSGSGSGTDFTLKISRVEAEDVGVYYCGQGTQFPYTFGQGTKLEIK" measurement_name="ratio of amounts bound (vs GLS3000)" assay_result=0.71

// moving on: another record for ratio of amounts bound (vs GLS3000)
Documented ratio of amounts bound (vs GLS3000) of GLS3000 V27cP (antibody, name in Kabat numbering, V domains shown, one-arm format as m2) VH: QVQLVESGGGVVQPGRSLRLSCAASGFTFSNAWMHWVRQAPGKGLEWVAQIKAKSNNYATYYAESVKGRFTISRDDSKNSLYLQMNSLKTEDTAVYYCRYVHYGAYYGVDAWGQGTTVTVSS VL: DIVMTQSPLSLPVTPGEPASISCRSSQSLPHSNRNTYLHWYQQKPGQAPRLLIYKVSNRFSGVPDRFSGSGSGTDFTLKISRVEAEDVGVYYCGQGTQVPYTFGQGTKLEIK : 0.3
